assay.name: A quantitative high throughput screen for small molecules that induce DNA re-replication in SW480 colon adenocarcinoma cells. Also: nearly all actives have a fitted effect of over 55% in size.
cond: Hoechst DNA content imaging, 48 h; series mostly up to 46.1 µM
The campaign covered roughly 340,000 compounds. About 6,200 (1.8%) were called active. Not shown: some 10% with an inconclusive outcome. Calls follow the shape of the dose curve; as a rule, active = well fitted activation curve with a large enough effect; inconclusive = small, poorly fitted or top-dose-only effect; inactive = no such curve, though single readings can be large or run the other way. The sample holds actives, similar compounds and a random draw of the others, so the mix is not that of the screen.
The reply should name one outcome from 1 = active, 0 = inactive

# compound, cat
measured = [
    ("CN1C(=O)c2ccc(NC(=O)c3c(F)c(F)c(F)c(F)c3F)cc2C1=O", 0),
    ("O=C1CC[C@@H]2CC3(C[C@@H]4CCN1[C@H]24)Nc1cc([N+](=O)[O-])ccc1NC3=NC1CCCCC1 (stereo not given in full)", 0),
    ("CN1C(=O)c2ccc(NC(=O)C3CCCCC3)cc2C1=O", 1),
    ("O=C(/C=C/c1cccc(C(F)(F)F)c1)N1CCN(c2ccccn2)CC1", 1),
    ("FC(F)(F)c1ccc(-c2cccc3c2C2CC3CCN2Cc2ccccc2)cc1 (stereo not given)", 0),
    ("CCCSc1nc2sc3c(c2c(=O)n1-c1ccc(OC)cc1)CCN(C)C3", 1),
    ("CC(=O)N1CCc2ccc(N)cc21", 0),
    ("CCOc1ccccc1NC(=O)CCc1ccc(C)o1", 0),
    ("Cc1cc(C)c([N+](=O)[O-])cc1-c1ccc(/C=N/NC(=O)c2nonc2N)o1", 0),
    ("COc1ccccc1NC(=O)N(O)C1(C#N)CCCCC1", 0),
]

So what was the verdict on "N#Cc1c(C(F)(F)F)cc(-c2ccc(Cl)cc2)nc1SCC(=O)O" in this test?
0
